- STUDY SYSTEM: human CB2 receptors (Homo sapiens, UniProt P34972)
- Construct: expressed in transfected cells; host or cells: CHO cells
- Sequence (P34972 whole entry): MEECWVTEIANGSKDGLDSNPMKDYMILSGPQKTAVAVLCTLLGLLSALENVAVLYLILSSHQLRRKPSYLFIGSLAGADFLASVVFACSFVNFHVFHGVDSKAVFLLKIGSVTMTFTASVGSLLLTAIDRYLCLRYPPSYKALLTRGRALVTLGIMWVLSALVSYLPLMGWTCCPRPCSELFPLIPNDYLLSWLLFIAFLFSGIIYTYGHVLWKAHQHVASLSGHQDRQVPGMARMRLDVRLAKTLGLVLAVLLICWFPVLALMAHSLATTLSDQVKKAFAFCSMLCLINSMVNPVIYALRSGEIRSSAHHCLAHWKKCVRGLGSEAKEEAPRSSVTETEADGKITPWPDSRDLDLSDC
- ASSAY PROCEDURE: cAMP assay
- Type: cell-based
- ASSAY CONDITIONS: CHO cells expressing human CB2 receptors; read-out: cAMP assay human CB2 EC50
READOUT KIND: pEC50
To interpret pEC50, take it as minus log10 of a concentration measured in moles per litre.

Sample CC(C)(Cc1nnc(-c2ccc(F)cc2)o1)NC(=O)c1ccc(C2CCCC2)c(OCC2CC2)n1 [Example 28] — what was its pEC50?
5.56

// next record CC(C)(Cc1nnc(-c2ccccc2)o1)NC(=O)c1cccc(-c2ccc(Cl)cc2)n1 [Example 2]
6.78

// next record CC(C)(Cc1nc(-c2ccccc2)no1)NC(=O)c1cccc(-c2cccc(Cl)c2)n1 [Example 8]
6.71

// next record COCCOCC(C)(C)c1cc(NC(=O)c2ccc(C3CCCC3)c(OCC3CC3)n2)on1 [Example 29]
6.76

// next record CC(C)(Cc1nc(-c2ccccc2)no1)NC(=O)c1cccc(OCC(F)(F)F)n1 [Example 5]
6.26

// next record CC(C)(Cc1nc(-c2ccccc2)no1)NC(=O)c1cccc(N2CCCC2=O)n1 [Example 12]
6.18

// next record CCOCCOCC(C)(C)c1cc(NC(=O)c2ccc(C3CCCC3)c(OCC3CC3)n2)on1 [Example 30]
6.75

// next record CC(C)(Cc1nnc(-c2ccc(F)cc2)o1)NC(=O)c1ccc(N2CC(F)(F)C2)c(OCC2CC2)n1 [Example 27]
5.54
